assay: self-splicing fitness, log relative to wild type (ln ratio); higher = more splicing; Tetrahymena group I intron in knt gene, E. coli kanamycin selection, DiMSum; sequences stand for … in CUCUCU…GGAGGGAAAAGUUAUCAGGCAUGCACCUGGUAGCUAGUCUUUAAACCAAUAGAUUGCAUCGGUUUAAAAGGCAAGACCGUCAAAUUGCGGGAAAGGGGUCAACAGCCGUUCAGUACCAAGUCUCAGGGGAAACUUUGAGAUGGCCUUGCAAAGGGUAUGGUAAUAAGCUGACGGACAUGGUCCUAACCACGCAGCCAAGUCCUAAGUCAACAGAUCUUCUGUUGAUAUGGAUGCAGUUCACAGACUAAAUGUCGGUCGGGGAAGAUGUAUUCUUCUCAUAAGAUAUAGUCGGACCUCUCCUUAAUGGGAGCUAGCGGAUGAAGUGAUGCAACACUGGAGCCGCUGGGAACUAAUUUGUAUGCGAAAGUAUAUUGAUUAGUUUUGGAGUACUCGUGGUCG; conditions: 30 °C;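 further: selection with 25 µg/mL kanamycin versus none on LB agar overnight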
Threshold check on self-splicing fitness (ln): at or above -3 gives y, strictly below gives n.

Example cases with answers are listed next.
UCAUAGCAAUAUUACGCUGC: n
CAAGAGCAAUAUUACGCUAU: n
GGUGAGCAAUAUUACGCUCU: n
AACCAGCAAUAUUACGACCU: y
ACAAAGCAAUAUUACGAUGC: y

Q. Please tell me: is the sequence UUCUAGCAAUAUUACGUCGC at or over -3 in terms of self-splicing fitness (ln)?
A. n

Q. Also need GGCGAGCAAUAUUACGGCGC , thanks.
A. y

All values here come from the supplement of paper PMC7877785.
